experiment: Acute oral toxicity; conditions: rat, in vivo, female, read-out: Est. LD50
quantity.name: LD50

For `O=[N+]([O-])c1cc(C(F)(F)F)cc2nc(C(F)(F)F)[nH]c12` , write its LD50. 19 to 22 mg/kg

* * *

system: Red-Legged Grasshopper Adults; experiment: Field trial, contact poison test; type: in vivo; details: 10 ppm
Could you please report measured average mortality rating for the items listed next?
Kindly provide the number alone.

Tell me its average mortality rating given `CCCCCCOC(=O)n1c(C(F)(F)F)nc2c([N+](=O)[O-])cc(C(F)(F)F)cc21` as the entry. 3

Assign average mortality rating to the following record: `O=[N+]([O-])c1cc(C(F)(F)F)cc2nc(C(F)(F)F)[nH]c12` 3

Give the reported value of average mortality rating for this record: `CC(C)OC(=O)n1c(C(F)(F)F)nc2c([N+](=O)[O-])cc(C(F)(F)F)cc21` 2

* * *

assay: Acute oral toxicity; conditions: rat, in vivo, male, read-out: Est. LD50
quantity.name: LD50

Output LD50 of `O=[N+]([O-])c1cc(C(F)(F)F)cc2nc(C(F)(F)F)[nH]c12` 16 to 20 mg/kg

* * *

test system: Boll Weevil; test: Boll Weevil Test; assay type: in vivo, Anthonomus grandis (Coleoptera); conditions: 25 ppm, 48 h
Criterion: mortality rating strictly less than 6. Met: Criterion met. Not met: Criterion not met.

Does `O=[N+]([O-])c1cc(C(F)(F)F)cc2nc(C(F)(F)F)[nH]c12` have mortality rating strictly under 6? Criterion not met

Identify whether the molecule `O=C(Oc1ccc([N+](=O)[O-])cc1)n1c(C(F)(F)F)nc2c([N+](=O)[O-])cc(C(F)(F)F)cc21` records mortality rating below 6. Criterion met

Field: below-cutoff. Rule: recorded mortality rating strictly less than 6. Subject: `O=[N+]([O-])c1cc(C(F)(F)F)cc2c1nc(C(F)(F)F)n2S(=O)(=O)c1ccccc1` Criterion not met

mortality rating under 6? Item: `CC(C)OC(=O)n1c(C(F)(F)F)nc2c([N+](=O)[O-])cc(C(F)(F)F)cc21` Criterion not met

Quick check: mortality rating of `CCCCCCOC(=O)n1c(C(F)(F)F)nc2c([N+](=O)[O-])cc(C(F)(F)F)cc21` under 6? Criterion not met

Does the reported mortality rating of `O=[N+]([O-])c1cc(C(F)(F)F)cc2[nH]c(C(F)(F)Cl)nc12` stay below 6? Criterion met

I wonder whether `O=[N+]([O-])c1cc(C(F)(F)F)cc2nc(C(F)(F)F)[nH]c12.[Na]` has mortality rating below 6. Can you tell? Criterion not met

* * *

system: Southern Corn Rootworm Adults; test: Field trial, contact poison test; format: in vivo; details: 100 ppm
quantity.name: average mortality rating
Reply briefly: the number, and no unit.

Determine its reported average mortality rating: O=[N+]([O-])c1cc(C(F)(F)F)cc2nc(C(F)(F)F)[nH]c12.[Na] [B] 8

Indicate its recorded average mortality rating; the compound in question is CCCCCCOC(=O)n1c(C(F)(F)F)nc2c([N+](=O)[O-])cc(C(F)(F)F)cc21 [E] 8

Assign average mortality rating to the following record: O=C(Oc1ccc([N+](=O)[O-])cc1)n1c(C(F)(F)F)nc2c([N+](=O)[O-])cc(C(F)(F)F)cc21 [N] 3

Answer with reported average mortality rating of O=[N+]([O-])c1cc(C(F)(F)F)cc2nc(C(F)(F)F)[nH]c12 [A] 8

* * *

Kindly supply the reported average mortality rating values for the records listed here.
test system: Red-Legged Grasshopper Adults; test: Field trial, contact poison test; format: in vivo; conditions: 50 ppm

# lookup: Red-Legged Grasshopper Adults average mortality rating, key = `O=[N+]([O-])c1cc(C(F)(F)F)cc2nc(C(F)(F)F)[nH]c12` 4

Fill: average mortality rating (Red-Legged Grasshopper Adults) for this compound `O=[N+]([O-])c1cc(C(F)(F)F)cc2[nH]c(C(F)(F)Cl)nc12` 9 (91-100 percent mortality)

Answer with average mortality rating of `CCOC(=O)n1c(C(F)(F)F)nc2c([N+](=O)[O-])cc(C(F)(F)F)cc21` measured for Red-Legged Grasshopper Adults. 9 (91-100 percent mortality)

Return reported average mortality rating for target or system Red-Legged Grasshopper Adults, item `CC(C)OC(=O)n1c(C(F)(F)F)nc2c([N+](=O)[O-])cc(C(F)(F)F)cc21` . 5

Using Red-Legged Grasshopper Adults as the test system, report measured average mortality rating of `O=[N+]([O-])c1cc(C(F)(F)F)cc2nc(C(F)F)[nH]c12` . 5

Fill: average mortality rating (Red-Legged Grasshopper Adults) for this compound `CCCCCCOC(=O)n1c(C(F)(F)F)nc2c([N+](=O)[O-])cc(C(F)(F)F)cc21` 7

* * *

assay: Acute oral toxicity; details: in vivo, guinea pig, male, read-out: Est. LD50
quantity.name: LD50 (mg/kg)
Write the answer as a number in mg/kg, unit excluded.

Provide one value: measured LD50 of O=[N+]([O-])c1cc(C(F)(F)F)cc2nc(C(F)(F)F)[nH]c12 [A] 15

* * *

system: Striped Cucumber Beetle Adults; test: Field trial, stomach poison test; type: in vivo; set-up: key: mortality rating on a 0 to 9 scale; details: 10 ppm
quantity.name: average mortality rating
Respond with the number and no other words.

Give the value of average mortality rating reported for the following: `O=[N+]([O-])c1cc(C(F)(F)F)cc2nc(C(F)F)[nH]c12` 2

Report measured average mortality rating; entry is `CCCCCCOC(=O)n1c(C(F)(F)F)nc2c([N+](=O)[O-])cc(C(F)(F)F)cc21` 3

# return recorded average mortality rating for entry `O=[N+]([O-])c1cc(C(F)(F)F)cc2nc(C(F)(F)F)[nH]c12` 1

Return value of average mortality rating for input `CCOC(=O)n1c(C(F)(F)F)nc2c([N+](=O)[O-])cc(C(F)(F)F)cc21` , no commentary. 2

Note average mortality rating for the compound shown: `CC(C)OC(=O)n1c(C(F)(F)F)nc2c([N+](=O)[O-])cc(C(F)(F)F)cc21` 2

* * *

Kindly supply the reported average mortality rating values for the records listed here.
test system: Potato Flea Beetle Adults; test: Field trial, stomach poison test; assay type: in vivo; conditions: 25 ppm

Supply reported average mortality rating belonging to this compound: `O=[N+]([O-])c1cc(C(F)(F)F)cc2nc(C(F)F)[nH]c12` 1

Dear colleague, please send me the reported average mortality rating for `CC(C)OC(=O)n1c(C(F)(F)F)nc2c([N+](=O)[O-])cc(C(F)(F)F)cc21` when you can. 8

Given `O=[N+]([O-])c1cc(C(F)(F)F)cc2c1nc(C(F)(F)F)n2S(=O)(=O)c1ccccc1` , respond with its average mortality rating. 9 (91-100 percent mortality)

Please list average mortality rating recorded for the compound `CCCCCCOC(=O)n1c(C(F)(F)F)nc2c([N+](=O)[O-])cc(C(F)(F)F)cc21` 9 (91-100 percent mortality)

Hello, please tell me recorded average mortality rating for this one: `O=[N+]([O-])c1cc(C(F)(F)F)cc2nc(C(F)(F)F)[nH]c12` 6

Recall and state the measured average mortality rating for `CCN(CC)C(=O)n1c(SC(F)(F)F)nc2c([N+](=O)[O-])cc(SC(F)(F)F)cc21` . 7

* * *

system: Confused Flour Beetle; assay: Field trial (first summer), topical; format: in vivo; conditions: .078125 μg/μl
quantity.name: insect mortality rating

Please give measured insect mortality rating of the following entry: `O=[N+]([O-])c1cc(C(F)(F)F)cc2c1nc(C(F)(F)F)n2S(=O)(=O)c1ccccc1` 9 (91-100 percent mortality)

Note down insect mortality rating recorded for `O=[N+]([O-])c1cc(C(F)(F)F)cc2nc(C(F)(F)F)[nH]c12` 9 (91-100 percent mortality)

Identify measured insect mortality rating corresponding to `O=[N+]([O-])c1cc(C(F)(F)F)cc2nc(C(F)F)[nH]c12` 7

Give the measured insect mortality rating for `C=CCOC(=O)n1c(C(F)(F)F)nc2c([N+](=O)[O-])cc(C(F)(F)F)cc21` 9 (91-100 percent mortality)

* * *

Test: Acute oral toxicity
Conditions: in vivo, mouse, female, read-out: Est. LD50
Text: While the compounds of this invention resemble the organic phosphates in being toxic upon ingestion, they differ from the organic phosphates in having a low toxicity when applied to the skin. The following charts give the estimated acute oral and acute dermal toxicities of 2,6-bis(trifluoromethyl)-4-nitrobenzimidazole in several species of mammals.
quantity.name: LD50 (mg/kg)
# output: bare number, implied unit mg/kg

State its LD50 for this molecule: O=[N+]([O-])c1cc(C(F)(F)F)cc2nc(C(F)(F)F)[nH]c12 [A] 27

* * *

tested on: Meadow Spittlebug; test: Field trial, stomach poison test; type: in vivo; conditions: 50 ppm
Would you kindly list average mortality rating for each of these molecules?

Tell us which average mortality rating value is on record for `CCOC(=O)n1c(C(F)(F)F)nc2c([N+](=O)[O-])cc(C(F)(F)F)cc21` 3

Using known records, supply average mortality rating for `CCCCCCOC(=O)n1c(C(F)(F)F)nc2c([N+](=O)[O-])cc(C(F)(F)F)cc21` 3

Consider the molecule `O=[N+]([O-])c1cc(C(F)(F)F)cc2nc(C(F)(F)F)[nH]c12` and give its recorded average mortality rating. 1

For the molecule `O=[N+]([O-])c1cc(C(F)(F)F)cc2[nH]c(C(F)(F)Cl)nc12` , give its reported average mortality rating. 1

State its average mortality rating: `O=[N+]([O-])c1cc(C(F)(F)F)cc2c1nc(C(F)(F)F)n2S(=O)(=O)c1ccccc1` 7

// Input: `O=C(Oc1ccc([N+](=O)[O-])cc1)n1c(C(F)(F)F)nc2c([N+](=O)[O-])cc(C(F)(F)F)cc21` . Output its average mortality rating only. 0 (0-10 percent)

Name the recorded average mortality rating of the molecule listed here: `CC(C)OC(=O)n1c(C(F)(F)F)nc2c([N+](=O)[O-])cc(C(F)(F)F)cc21` 3
